# assay.text: recombinant barcode read abundance after kanamycin selection (control-corrected) (log10(CPM+1)); higher = more efficient recombination; sequences stand for … in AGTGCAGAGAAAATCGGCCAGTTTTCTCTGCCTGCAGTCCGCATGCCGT…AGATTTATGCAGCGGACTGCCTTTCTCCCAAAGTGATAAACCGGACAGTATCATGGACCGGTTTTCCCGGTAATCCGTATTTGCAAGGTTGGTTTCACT; site = the 11-nt target
readout.kind: recombinant barcode read abundance (log10)
When you answer, write just the number.

construct.sequence: ACTTTACCTTGGGTTCTAACCTGTTGCCT (site ACTTTACCTAG)
test.value: 0.188

construct.sequence: TGGCCCTCTTGGGTTCTAACCTGTTGCTA (site TGGCCCTCTCA)
test.value: 0.0705

construct.sequence: TATACAGCTTGGGTTCTAACCTGTTGCCT (site TACACAGCTAG)
test.value: 0.192

construct.sequence: CCAAGCTCTTGGGTTCTAACCTGTTGCCT (site CCAAGCGCTAG)
test.value: 0.214

construct.sequence: GGGCTCCCTTGGGTTCTAACCTGTTGCCG (site TACAATTCTAT)
test.value: 0.128

# query: recombinant barcode read abundance (log10) of entry CGTCGTACTTGGGTTCTAACCTGTTGCCT (site CGACGTACTAG) 0.504

# query: recombinant barcode read abundance (log10) of entry GCGCCCTCTTGGGTTCTAACCTGTTGCCG (site CAATTACCTAA) 0.194

# query: recombinant barcode read abundance (log10) of entry AACGCTCCTTGGGTTCTAACCTGTTGCGG (site CACGGTCCTCC) 0.0943

====

# assay.text: recombinant UMI read abundance after kanamycin selection (control-corrected) (log10(CPM+1)); higher = more efficient recombination; extreme values may be limits of the assay; sequences stand for … in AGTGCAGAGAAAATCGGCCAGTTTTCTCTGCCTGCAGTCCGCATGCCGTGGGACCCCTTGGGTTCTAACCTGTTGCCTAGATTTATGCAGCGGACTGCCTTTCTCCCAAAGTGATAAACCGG…AGGTTGGTTTCACT; site = the 11-nt donor
Would you mind labelling by recombinant UMI read abundance (log10)? At or over 0.3 is true, under is false.

Example entries begin here.
construct.sequence: CGGGAGCCATGGACCGGTTTTCCCGGTAATCCGTATTTGAT (site CGGGACCCTAT)
qualitative.label: false
--
construct.sequence: CCGATTCCATGGACCGGTTTTCCCGGTAATCCGTATTTGTT (site CCGATTCCTAA)
qualitative.label: false
--
construct.sequence: TGTCCACCATGGACCGGTTTTCCCGGTAATCCGTATTTGAC (site TGTTCACCTGT)
qualitative.label: false
--
construct.sequence: TCAGCTGCATGGACCGGTTTTCCCGGTAATCCGTATTTGTG (site TGAGCTGCTCA)
qualitative.label: false
--
construct.sequence: CAGCACGCATGGACCGGTTTTCCCGGTAATCCGTATTTGGG (site AAGCACGCTCC)
qualitative.label: false
--
construct.sequence: TCCTAGACATGGACCGGTTTTCCCGGTAATCCGTATTTGGG (site ACCTAGACTCC)
qualitative.label: false
--
construct.sequence: GAGCTCACATGGACCGGTTTTCCCGGTAATCCGTATTTGTT (site GAGCTCACTAC)
qualitative.label: false
--
construct.sequence: GGGTATCCATGGACCGGTTTTCCCGGTAATCCGTATTTGTT (site GGGTATCCTAA)
qualitative.label: false
--
construct.sequence: CTGACATCATGGACCGGTTTTCCCGGTAATCCGTATTTGAG (site CTGACATCTCT)
qualitative.label: true
--
construct.sequence: GTATGCGCATGGACCGGTTTTCCCGGTAATCCGTATTTGTA (site GTATGCCCTTA)
qualitative.label: true

Test whether the sequence GTGCTCCCATGGACCGGTTTTCCCGGTAATCCGTATTTGAC (site GTGCTCCCTGT) records recombinant UMI read abundance (log10) of 0.3 or higher. true

Test whether the sequence ACCCGCTCATGGACCGGTTTTCCCGGTAATCCGTATTTGCA (site ACCCGCTCTTG) records recombinant UMI read abundance (log10) of 0.3 or higher. true

Value source: the supplement of paper PMC11208160
